- targetUnderTest: Adenosine receptor A1 (Rattus norvegicus, UniProt P25099)
- assayRemarks: Negative chronotropic activity via A1 Adenosine receptor was tested in spontaneously beating rat atria
- Type: functional
pEC50: −log10 of the molar value.
Given measured pEC50, output 1 if it is greater than or equal to 6 and -1 if not.

- compound: "CCNC(=O)[C@H]1O[C@@H](n2cnc3c(N)nc(C#CC(OCC)OCC)nc32)[C@H](O)[C@@H]1O"
  label: -1
- compound: "CCNC(=O)[C@H]1O[C@@H](n2cnc3c(N)nc(C#CCC(C)O)nc32)[C@H](O)[C@@H]1O (stereo partly specified)"
  label: -1
- compound: "C=C(C)C#Cc1nc(N)c2ncn([C@@H]3O[C@H](C(=O)NCC)[C@@H](O)[C@H]3O)c2n1"
  label: -1
- compound: "CCNC(=O)[C@H]1O[C@@H](n2cnc3c(N)nc(C#CCO)nc32)[C@H](O)[C@@H]1O"
  label: 1
- compound: "CCNC(=O)[C@H]1O[C@@H](n2cnc3c(N)nc(C#CCCCC#N)nc32)[C@H](O)[C@@H]1O"
  label: -1
- compound: "CCNC(=O)[C@H]1O[C@@H](n2cnc3c(N)nc(C#CC(C)(O)c4ccccc4)nc32)[C@H](O)[C@@H]1O (stereo partly specified)"
  label: -1
- compound: "CCNC(=O)[C@H]1O[C@@H](n2cnc3c(N)nc(C#CC(O)CC)nc32)[C@H](O)[C@@H]1O (stereo partly specified)"
  label: 1
- compound: "CCNC(=O)[C@H]1O[C@@H](n2cnc3c(N)nc(C#CC(O)c4ccccc4)nc32)[C@H](O)[C@@H]1O (stereo partly specified)"
  label: 1
- compound: "CCNC(=O)[C@H]1O[C@@H](n2cnc3c(N)nc(C#CC4CCCCC4)nc32)[C@H](O)[C@@H]1O"
  label: -1

* * *

- targetUnderTest: Adenosine A2 receptor (Rattus norvegicus, UniProt P29276+P30543)
# note: exactly 8 nM is not below, so it is NO; use YES for Ki strictly under it

- molecule: "CCNC(=O)[C@H]1O[C@@H](n2cnc3c(N)nc(C#CC(C)O)nc32)[C@H](O)[C@@H]1O (stereo partly drawn)"
  label: "YES"
- molecule: "CCNC(=O)[C@H]1O[C@@H](n2cnc3c(N)nc(C#CCO)nc32)[C@H](O)[C@@H]1O"
  label: "NO"
- molecule: "CCNC(=O)[C@H]1O[C@@H](n2cnc3c(N)nc(C#CC4(O)CCCC4)nc32)[C@H](O)[C@@H]1O"
  label: "YES"
- molecule: "C=C(C)C#Cc1nc(N)c2ncn([C@@H]3O[C@H](C(=O)NCC)[C@@H](O)[C@H]3O)c2n1"
  label: "NO"
- molecule: "CCNC(=O)[C@H]1O[C@@H](n2cnc3c(N)nc(C#CCCCCO)nc32)[C@H](O)[C@@H]1O"
  label: "YES"
- molecule: "CCNC(=O)[C@H]1O[C@@H](n2cnc3c(N)nc(C#CCN(C)C)nc32)[C@H](O)[C@@H]1O"
  label: "YES"
- molecule: "CCNC(=O)[C@H]1O[C@@H](n2cnc3c(N)nc(C#CC(OCC)OCC)nc32)[C@H](O)[C@@H]1O"
  label: "NO"
- molecule: "CCNC(=O)[C@H]1O[C@@H](n2cnc3c(N)nc(C#CC4CCCCC4)nc32)[C@H](O)[C@@H]1O"
  label: "NO"
- molecule: "CCCCC#Cc1nc(N)c2ncn([C@@H]3O[C@H](C(=O)NCC)[C@@H](O)[C@H]3O)c2n1"
  label: "YES"
- molecule: "CCNC(=O)[C@H]1O[C@@H](n2cnc3c(N)nc(C#CCCO)nc32)[C@H](O)[C@@H]1O"
  label: "NO"
- molecule: "C#Cc1nc(N)c2ncn([C@@H]3O[C@H](C(=O)NCC)[C@@H](O)[C@H]3O)c2n1"
  label: "NO"
- molecule: "CCNC(=O)[C@H]1O[C@@H](n2cnc3c(N)nc(C#CC4=CCCCC4)nc32)[C@H](O)[C@@H]1O"
  label: "NO"
- molecule: "CCNC(=O)[C@H]1O[C@@H](n2cnc3c(N)nc(C#CC(O)c4ccccc4)nc32)[C@H](O)[C@@H]1O (stereo partly drawn)"
  label: "YES"
- molecule: "CCNC(=O)[C@H]1O[C@@H](n2cnc3c(N)nc(C#CCCCC#N)nc32)[C@H](O)[C@@H]1O"
  label: "YES"
- molecule: "CCNC(=O)[C@H]1O[C@@H](n2cnc3c(N)nc(C#CCC(C)O)nc32)[C@H](O)[C@@H]1O (stereo partly drawn)"
  label: "NO"
- molecule: "CCNC(=O)[C@H]1O[C@@H](n2cnc3c(N)nc(C#CC4(N)CCCCC4)nc32)[C@H](O)[C@@H]1O"
  label: "NO"
- molecule: "CCNC(=O)[C@H]1O[C@@H](n2cnc3c(N)nc(C#CCCCCl)nc32)[C@H](O)[C@@H]1O"
  label: "YES"
- molecule: "CCNC(=O)[C@H]1O[C@@H](n2cnc3c(N)nc(C#CCN)nc32)[C@H](O)[C@@H]1O"
  label: "NO"

* * *

- targetUnderTest: UniProt P25099
- Sequence (P25099 whole entry): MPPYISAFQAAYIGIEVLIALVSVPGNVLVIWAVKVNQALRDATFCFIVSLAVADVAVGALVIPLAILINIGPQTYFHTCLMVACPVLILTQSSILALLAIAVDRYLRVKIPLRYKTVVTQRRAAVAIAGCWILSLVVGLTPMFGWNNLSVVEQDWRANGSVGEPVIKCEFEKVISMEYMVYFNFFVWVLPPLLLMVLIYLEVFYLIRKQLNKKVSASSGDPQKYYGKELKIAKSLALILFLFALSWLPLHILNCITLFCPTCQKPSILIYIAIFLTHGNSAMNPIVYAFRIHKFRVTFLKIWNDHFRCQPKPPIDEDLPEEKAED
- assayRemarks: Negative chronotropic activity via A1 Adenosine receptor was tested in spontaneously beating rat atria
- Type: functional
pEC50: −log10 of the molar value.

- molecule: "CCNC(=O)[C@H]1O[C@@H](n2cnc3c(N)nc(C#CCN(C)C)nc32)[C@H](O)[C@@H]1O"
  pEC50: 6.48
- molecule: "CCNC(=O)[C@H]1O[C@@H](n2cnc3c(N)nc(C#CCCO)nc32)[C@H](O)[C@@H]1O"
  pEC50: "< 5.00"
- molecule: "CCNC(=O)[C@H]1O[C@@H](n2cnc3c(N)nc(C#CCCCO)nc32)[C@H](O)[C@@H]1O"
  pEC50: "< 5.00"
- molecule: "CCNC(=O)[C@H]1O[C@@H](n2cnc3c(N)nc(C#CCCCCl)nc32)[C@H](O)[C@@H]1O"
  pEC50: 5.60
- molecule: "CCCCC#Cc1nc(N)c2ncn([C@@H]3O[C@H](C(=O)NCC)[C@@H](O)[C@H]3O)c2n1"
  pEC50: "< 5.00"
- molecule: "CCNC(=O)[C@H]1O[C@@H](n2cnc3c(N)nc(C#CCCCCO)nc32)[C@H](O)[C@@H]1O"
  pEC50: "< 5.00"
- molecule: "CCNC(=O)[C@H]1O[C@@H](n2cnc3c(N)nc(C#CC(C)(O)CC(C)C)nc32)[C@H](O)[C@@H]1O (stereo partly drawn)"
  pEC50: "< 5.00"
- molecule: "C#Cc1nc(N)c2ncn([C@@H]3O[C@H](C(=O)NCC)[C@@H](O)[C@H]3O)c2n1"
  pEC50: 6.78

* * *

List of Ki tested on Adenosine A2 receptor (Rattus norvegicus, UniProt P29276+P30543).
propertyMeasured: Ki

- compound: "CCNC(=O)[C@H]1O[C@@H](n2cnc3c(N)nc(C#CC(C)(O)c4ccccc4)nc32)[C@H](O)[C@@H]1O (some centres undefined)"
  valueObserved: "1.7 nM"
- compound: "CCNC(=O)[C@H]1O[C@@H](n2cnc3c(N)nc(C#CCCCO)nc32)[C@H](O)[C@@H]1O"
  valueObserved: "11.3 nM"
- compound: "CCNC(=O)[C@H]1O[C@@H](n2cnc3c(N)nc(C#CCCOC4CCCCO4)nc32)[C@H](O)[C@@H]1O (some centres undefined)"
  valueObserved: "5 nM"
- compound: "CCNC(=O)[C@H]1O[C@@H](n2cnc3c(N)nc(C#CC(C)(O)CC(C)C)nc32)[C@H](O)[C@@H]1O (some centres undefined)"
  valueObserved: "0.5 nM"

* * *

- assayRemarks: Hydrophobicity index (k') (RP-HPLC)
- Type: ADME
propertyMeasured: k'

- sampleSmiles: "CCCCC#Cc1nc(N)c2ncn([C@@H]3O[C@H](C(=O)NCC)[C@@H](O)[C@H]3O)c2n1"
  valueObserved: 2.57
- sampleSmiles: "CCNC(=O)[C@H]1O[C@@H](n2cnc3c(N)nc(C#CCCCC#N)nc32)[C@H](O)[C@@H]1O"
  valueObserved: 0.32
- sampleSmiles: "CCNC(=O)[C@H]1O[C@@H](n2cnc3c(N)nc(C#CCCCCl)nc32)[C@H](O)[C@@H]1O"
  valueObserved: 1.35
- sampleSmiles: "CCNC(=O)[C@H]1O[C@@H](n2cnc3c(N)nc(C#CC4(N)CCCCC4)nc32)[C@H](O)[C@@H]1O"
  valueObserved: 0.6

Hello, the source for this data is ChEMBL document CHEMBL1127534, in case you need it.
